Catalogue of kinase still bound, per cent of control values
Molecular target: GSK3B (human)
Assay: KINOMEscan competition binding
Conditions: compound 10.0 µM
// units = %; emit number, no label

Observe how each entry below is paired with its result.
>>> endpoint_result("CS(=O)(=O)N1CCN(Cc2cc3nc(-c4cccc5[nH]ncc45)nc(N4CCOCC4)c3s2)CC1")
100
>>> endpoint_result("COc1cc2ncnc(-n3nc(-c4ccccn4)nc3N)c2cc1OC")
100
>>> endpoint_result("NC(=O)Nc1cc(-c2cccc(F)c2)sc1C(=O)N[C@@H]1CCCNC1")
41

response.value for COc1cc(N2CCN(C)CC2)ccc1Nc1ncc2c(n1)N(C)c1ccccc1C(=O)N2C (field: kinase still bound, per cent of control) = 100

response.value for C=CC(=O)Nc1ccc(CN(C(=O)Nc2c(Cl)c(OC)cc(OC)c2Cl)c2cc(Nc3ccc(N4CCN(C)CC4)cc3)ncn2)cc1 (field: kinase still bound, per cent of control) = 100

Provenance of the data: the kinase profiling compilation of Christmann-Franck et al. (2016)
